target: UniProtKB P35968
Category | rule: reported IC50 within range, see band A = under 4 nM, band B = from 4 nM up to 20 nM, band C = 20 nM and over

COMPOUND	ASSIGNED_LABEL
Cc1ccc(F)c(NC(=O)Nc2ccc(Oc3ccnc4cc(C(=O)N=S(C)(C)=O)sc34)cc2)c1 [Example 61]	band A
Cc1ccc(F)c(NC(=O)Nc2ccc(Oc3ccnc4cc(C(=O)NCCCN5CCOC(CO)C5)sc34)cc2)c1 (stereo not drawn) [Example 16]	band B
Cc1ccc(F)c(NC(=O)Nc2ccc(Oc3ccnc4cc(C(=O)NCCCN5CCC(C(=O)O)C5)sc34)cc2F)c1 (stereo not drawn) [Example 50]	band B
Cc1ccoc1C(=O)Nc1cccc(Oc2ccnc3cc(C(=O)O)sc23)c1 [Example 72]	band C
COC(=O)C1CCN(C(=O)c2cc3nccc(Oc4ccc(NC(=O)Nc5cc(C)ccc5F)c(F)c4)c3s2)C1 (stereo not drawn) [Example 28]	band B
COC(=O)c1cc2nccc(Oc3cccc(NC(=O)c4occc4C)c3)c2s1 [Example 71]	band C
Cc1ccc(F)c(NC(=O)Nc2ccc(Oc3ccnc4cc(C(=O)NCCCN5CCCC(CO)C5)sc34)cc2)c1 (stereo not drawn) [Example 15]	band A
Cc1ccc(F)c(NC(=O)Nc2ccc(Oc3ccnc4cc(C(=O)NCCCC(=O)O)sc34)cc2F)c1 [Example 64]	band B
COC(=O)CNCCCNC(=O)c1cc2nccc(Oc3ccc(NC(=O)Nc4cc(C)ccc4F)cc3)c2s1 [Example 18]	band A
COC(=O)CN(CCNC(=O)c1cc2nccc(Oc3ccc(NC(=O)Nc4cc(C)ccc4F)c(F)c3)c2s1)CC(=O)OC [Example 27]	band B
CCNC(=O)c1cc2nccc(Oc3cccc(NC(=O)c4occc4C)c3)c2s1 [Example 73]	band B
Cc1ccc(F)c(NC(=O)Nc2ccc(Oc3ccnc4cc(C(=O)NCCCN)sc34)cc2F)c1 [Example 45]	band B
Cc1ccoc1C(=O)Nc1cccc(Oc2ccnc3cc(C(=O)OCCO)sc23)c1 [Example 80]	band B

* * *

Recorded measurements of IC50, one per entry
target: VEGFR2 (Homo sapiens (Human)); test: VEGF Stimulated Ca++ Signal In Vitro (Cellular VEGFR2, FLIPR); conditions: HUVEC, VEGF stimulation (5 ng/mL), intracellular calcium
Sequence (P35968 20-1356): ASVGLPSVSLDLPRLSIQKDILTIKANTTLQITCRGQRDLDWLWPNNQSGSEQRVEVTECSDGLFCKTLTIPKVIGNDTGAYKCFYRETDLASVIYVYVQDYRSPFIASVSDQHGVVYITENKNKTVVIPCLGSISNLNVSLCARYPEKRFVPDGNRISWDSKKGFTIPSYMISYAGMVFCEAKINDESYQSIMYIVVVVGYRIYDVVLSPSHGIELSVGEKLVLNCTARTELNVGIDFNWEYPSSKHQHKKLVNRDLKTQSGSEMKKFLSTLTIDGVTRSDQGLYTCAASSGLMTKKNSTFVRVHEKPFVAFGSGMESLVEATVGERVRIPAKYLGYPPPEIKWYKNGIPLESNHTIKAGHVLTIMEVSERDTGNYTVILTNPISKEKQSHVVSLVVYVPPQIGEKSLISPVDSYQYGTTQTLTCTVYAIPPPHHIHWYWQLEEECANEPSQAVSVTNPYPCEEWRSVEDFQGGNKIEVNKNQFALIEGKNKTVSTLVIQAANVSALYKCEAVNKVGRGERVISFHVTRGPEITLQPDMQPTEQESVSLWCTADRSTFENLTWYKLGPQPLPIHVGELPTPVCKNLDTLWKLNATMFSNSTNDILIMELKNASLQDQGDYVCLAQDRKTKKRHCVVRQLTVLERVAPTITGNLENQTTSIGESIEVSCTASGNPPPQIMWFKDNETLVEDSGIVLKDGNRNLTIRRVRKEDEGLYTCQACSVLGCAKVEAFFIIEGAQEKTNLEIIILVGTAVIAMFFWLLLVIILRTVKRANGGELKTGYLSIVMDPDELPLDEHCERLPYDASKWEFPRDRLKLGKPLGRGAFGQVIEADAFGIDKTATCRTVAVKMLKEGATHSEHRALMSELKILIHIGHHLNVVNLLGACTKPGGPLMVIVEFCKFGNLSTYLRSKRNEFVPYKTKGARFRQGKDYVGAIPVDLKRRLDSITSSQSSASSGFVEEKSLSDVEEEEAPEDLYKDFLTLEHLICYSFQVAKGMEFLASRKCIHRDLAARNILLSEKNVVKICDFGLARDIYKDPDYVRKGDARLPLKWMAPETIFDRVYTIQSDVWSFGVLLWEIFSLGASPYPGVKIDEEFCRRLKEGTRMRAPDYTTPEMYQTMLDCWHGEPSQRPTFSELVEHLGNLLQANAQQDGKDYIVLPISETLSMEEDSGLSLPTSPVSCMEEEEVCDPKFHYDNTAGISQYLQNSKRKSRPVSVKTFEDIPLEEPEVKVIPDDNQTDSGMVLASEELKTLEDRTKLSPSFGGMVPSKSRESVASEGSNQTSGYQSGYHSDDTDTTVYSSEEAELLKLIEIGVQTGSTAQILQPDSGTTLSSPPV
MEASURE: IC50

COMPOUND	TESTED_SYSTEM	MEASURE	MEASURED_RESULT
Cc1ccc(F)c(NC(=O)Nc2ccc(-c3ccnc4cc(C(=O)O)sc34)cc2)c1	VEGFR2 (Homo sapiens (Human))	IC50	10000 nM
Cc1ccc(F)c(NC(=O)Nc2ccc(Oc3ccnc4cc(C(=O)NCCc5nn[nH]n5)sc34)cc2)c1	VEGFR2 (Homo sapiens (Human))	IC50	97 nM
COC(=O)C1CCCN1CCCNC(=O)c1cc2nccc(Oc3ccc(NC(=O)Nc4cc(C)ccc4F)c(F)c3)c2s1 (stereo not drawn)	VEGFR2 (Homo sapiens (Human))	IC50	4 nM
CCOC(=O)CCCNC(=O)c1cc2nccc(Oc3ccc(NC(=O)Nc4cc(C)ccc4F)c(F)c3)c2s1	VEGFR2 (Homo sapiens (Human))	IC50	1 nM
Cc1ccc(F)c(NC(=O)Nc2ccc(Oc3ccnc4cc(C(=O)NCCCN5CCC(C(=O)O)C5)sc34)cc2F)c1 (stereo not drawn)	VEGFR2 (Homo sapiens (Human))	IC50	80 nM
Cc1ccc(F)c(NC(=O)Nc2ccc(Oc3ccnc4cc(C(=O)NCCCN5CCCC(CO)C5)sc34)cc2)c1 (stereo not drawn)	VEGFR2 (Homo sapiens (Human))	IC50	39 nM
Cc1ccc(F)c(NC(=O)Nc2ccc(Oc3ccnc4cc(C(=O)NCCCN5CCC(O)CC5)sc34)cc2F)c1	VEGFR2 (Homo sapiens (Human))	IC50	14 nM
Cc1ccoc1C(=O)Nc1cccc(Oc2ccnc3cc(C(=O)NO)sc23)c1	VEGFR2 (Homo sapiens (Human))	IC50	16 nM
CCNC(=O)c1cc2nccc(Oc3cccc(C(=O)Nc4cc(C)ccc4F)c3)c2s1	VEGFR2 (Homo sapiens (Human))	IC50	16 nM
COC(=O)CNCCCNC(=O)c1cc2nccc(Oc3cccc(C(=O)Nc4cc(C)ccc4F)c3)c2s1	VEGFR2 (Homo sapiens (Human))	IC50	9 nM
COC(=O)[C@@H]1C[C@@H](O)CN1CCCNC(=O)c1cc2nccc(Oc3ccc(NC(=O)Nc4cc(C)ccc4F)c(F)c3)c2s1	VEGFR2 (Homo sapiens (Human))	IC50	2 nM
COC(=O)c1cc2nccc(Oc3cccc(NC(=O)Nc4cc(C)ccc4F)c3)c2s1	VEGFR2 (Homo sapiens (Human))	IC50	35 nM
Cc1ccc(F)c(NC(=O)Nc2ccc(Oc3ccnc4cc(C(=O)O)sc34)cc2)c1	VEGFR2 (Homo sapiens (Human))	IC50	29 nM
Cc1ccc(F)c(NC(=O)Nc2ccc(Oc3ccnc4cc(C(=O)NCCCN5CCCC5)sc34)cc2F)c1	VEGFR2 (Homo sapiens (Human))	IC50	6 nM
Cc1ccc(F)c(NC(=O)c2cccc(Oc3ccnc4cc(C(=O)O)sc34)c2)c1	VEGFR2 (Homo sapiens (Human))	IC50	87 nM
